Listed here: items and their measured koff.
Target: T1, mouse CTGF (Abbexa) (mouse, UniProt P29268 26-348, limits assumed)
T1 construct: also called Murine CTGF; mCTGF
T1 sequence (looked up): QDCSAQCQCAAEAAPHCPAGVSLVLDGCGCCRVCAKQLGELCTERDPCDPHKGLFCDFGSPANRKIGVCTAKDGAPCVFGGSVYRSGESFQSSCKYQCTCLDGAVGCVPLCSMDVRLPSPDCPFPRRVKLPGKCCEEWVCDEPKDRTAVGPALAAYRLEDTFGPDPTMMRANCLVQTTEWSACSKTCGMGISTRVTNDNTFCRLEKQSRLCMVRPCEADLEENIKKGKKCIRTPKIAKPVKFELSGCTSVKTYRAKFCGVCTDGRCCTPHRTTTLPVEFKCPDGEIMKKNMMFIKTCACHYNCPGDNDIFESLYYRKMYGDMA
Test: SPR (Biacore)
Just the number please, in s⁻¹, no unit attached.

Here's what some known entries look like.
BINDER	MEASUREMENT UNITS	koff
lipocalin mutein of SEQ ID NO: 9 (designed binder, Parent hNGAL mutein; also called hNGAL mutein) QDSTSDLIPAPPLSKVPLQQNFQDNQFHGKWYVVGLAGNKILRIDKQPAKMFATIYELKEDKSYDVTSVRFEARSCSYTIKTFVPGSQPGEFTAGNIKSAPGQTSTLVRVVSTNYNQHAMVFFKHVSQNRETFVITLYGRTKELTSELKENFIRFSKSLGLPENHIVFPVPIDQCIDGSAWSHPQFEK	s⁻¹	0.000832
lipocalin mutein of SEQ ID NO: 31 (designed binder, also called hNGAL mutein; not shown: C-terminal His-tag) QDSTSDLIPAPPLSKVPLQQNFQDNQFQGKWYVVGWAGNVKLREDKQPQKMSATIYELKEDKSYDVTEVVFEQKKCHYIIKTFVPGSQPGEFTAGDIKSPPGYTSSLVRVVSTNYNQHAMVFFKKVSQNREFFWITLYGRTKELTSELKENFIRFSKSLGLPENHIVFPVPIDQCIDG	s⁻¹	0.000444

# get_value(readout='koff', item= lipocalin mutein of SEQ ID NO: 32 (designed binder, also called hNGAL mutein; not shown: C-terminal His-tag) QDSTSDLIPAPPLSKVPLQQNFQDNQFQGKWYVVGWAGNVKLREDKQPFKMSATIYELKEDKSYDVTEVVFEQKKCHYIIKTFVPGSQPGEFTLSPISSSPGLVSHLVRVVSTNYNQHAMVFFKKVHQNREFFWITLYGRTKELTSELKENFIRFSKSLGLPENHIVFPVPIDQCIDG ) 0.000264

# get_value(readout='koff', item= lipocalin mutein of SEQ ID NO: 27 (designed binder, also called hNGAL mutein; not shown: C-terminal His-tag) QDSTSDLIPAPPLSKVPLQQNFQDNQFQGKWYVVGLAGNYRLREDKDPSKMGATIYELKEDKSYDVTQVQFDDKKCLYVIETFVPGSQPGEFTLGAIKSYPGLTSQLVRVVSTNYNQHAMVFLKKVYGSEEYFHITLYGRTKELTSELKENFIRFSKSLGLPENHIVFPVPIDQCIDG ) 0.000172
